System: RERF-LC-KJ
Assay: relative viability (nuclei count vs DMSO), 5 days (fraction); higher = more cells survive
Conditions: first compound 2.53 µM
For each of the compounds below, state its relative viability.
One number for each entry.

Worked cases, relative viability given:
INSERT INTO assay_data (compound, target_system, numeric_value) VALUES
  ('CCCCCCCCCCCC1=C(O)C(=O)C=C(O)C1=O [Embelin] + CC(=O)Nc1cccc(-n2c(=O)n(C3CC3)c(=O)c3c(Nc4ccc(I)cc4F)n(C)c(=O)c(C)c32)c1 [Trametinib] (partner 0.02 µM)', 'RERF-LC-KJ', 0.896),
  ('CCCCCCCCCCCC1=C(O)C(=O)C=C(O)C1=O [Embelin] + COc1cccc2cc(-c3nc([C@H]4CC[C@H](C(=O)O)CC4)n4ncnc(N)c34)[nH]c12 [OSI-027] (partner 0.5 µM)', 'RERF-LC-KJ', 0.545),
  ('CCCCCCCCCCCC1=C(O)C(=O)C=C(O)C1=O [Embelin] + NC(=O)Nc1cc(-c2cccc(F)c2)sc1C(=O)N[C@H]1CCCNC1 [AZD7762] (partner 0.2 µM)', 'RERF-LC-KJ', 1.13),
  ('CCCCCCCCCCCC1=C(O)C(=O)C=C(O)C1=O [Embelin] + COc1cc2c(Oc3ccc(NC(=O)C4(C(=O)Nc5ccc(F)cc5)CC4)cc3F)ccnc2cc1OCCCN1CCOCC1 [Foretinib] (partner 0.25 µM)', 'RERF-LC-KJ', 0.95);

Moving on to the next compound.
For the compound CCCCCCCCCCCC1=C(O)C(=O)C=C(O)C1=O [Embelin] + Cc1cc(Nc2cc(N3CCN(C)CC3)nc(Sc3ccc(NC(=O)C4CC4)cc3)n2)n[nH]1 [Tozasertib] (partner 0.1 µM) , the measured relative viability on RERF-LC-KJ was 0.564
